Measured values drawn from patent US4192871A for this set.

experimentalDetails: dissolution of the 11β-aminoester salts in aqueous acid (Table 5 and Examples 101, 225-229)
Format: physicochemical
runConditions: method A: clear solution, 1 molar part acid; made up with water to WT. of solution 10 g, except Ex. 121 and 150: 12; 123: 12.3; 124: 7.5; 129: 10.3; 135 and 139: 8.95; 164: 10.35; 170: 10.4; 181: 10.04; 187: 9.5; 210: 10.2; 221: 15 g
// not satisfied strictly below 100 mg in Dissolved aminoester; satisfied otherwise

# compound, assignedClass
measured = [
    ("CC(=O)[C@H]1CC[C@H]2[C@@H]3CC[C@H]4C[C@H](O)CC[C@]4(C)[C@H]3[C@@H](OC(=O)CNCC(C)C)C[C@]12C [Example 135]", "not satisfied"),
    ("CCCCN(CC)CC(=O)O[C@H]1C[C@]2(C)[C@@H](C(C)=O)CC[C@H]2[C@@H]2CC[C@H]3C[C@H](O)CC[C@]3(C)[C@H]21 [Example 221]", "satisfied"),
    ("CCN(CC)CC(=O)O[C@H]1C[C@]2(C)[C@@H](C(C)=O)CC[C@H]2[C@@H]2CC[C@H]3C[C@H](O)[C@@H](OC)C[C@]3(C)[C@H]21 [Example 124]", "not satisfied"),
    ("CCCCN(CC)CC(=O)O[C@H]1C[C@]2(C)[C@@H](C(C)=O)CC[C@H]2[C@@H]2CC[C@H]3C[C@H](O)[C@@H](OCC)C[C@]3(C)[C@H]21 [Example 150]", "satisfied"),
    ("CCCCN(C)CC(=O)O[C@H]1C[C@]2(C)[C@@H](C(C)=O)CC[C@H]2[C@@H]2CC[C@H]3C[C@H](O)[C@@H](OCC)C[C@]3(C)[C@H]21 [Example 121]", "satisfied"),
]

Reported Dissolved aminoester reaches at least 100 mg for CCCC(C)N(C)CC(=O)O[C@H]1C[C@]2(C)[C@@H](C(C)=O)CC[C@H]2[C@@H]2CC[C@H]3C[C@H](O)CC[C@]3(C)[C@H]21 (stereo partly drawn) [Example 187] ?
not satisfied

Can CCC(C)NCC(=O)O[C@H]1C[C@]2(C)[C@@H](C(C)=O)CC[C@H]2[C@@H]2CC[C@H]3C[C@H](O)CC[C@]3(C)[C@H]21 (stereo partly drawn) [Example 139] be said to have Dissolved aminoester at or above 100 mg?
not satisfied

Does the compound CCOC1CC2(C)C(CCC3C4CCC(C(C)=O)C4(C)CC(OC(=O)CN4CCC(C)CC4)C32)CC1O (stereo not drawn) [Example 164] have recorded Dissolved aminoester that is 100 mg or more?
satisfied

In plain terms: is recorded Dissolved aminoester at least 100 mg for CCCCN(C)CC(=O)OC1CC2(C)C(C(C)=O)CCC2C2CCC3CC(O)C(OC(C)=O)CC3(C)C12 (stereo not drawn) [Example 170] ?
satisfied

Confirm if Dissolved aminoester reported for the compound CO[C@H]1C[C@@]2(C)[C@@H](CC[C@@H]3[C@@H]2[C@@H](OC(=O)CN2CCCCC2)C[C@]2(C)[C@@H](C(C)=O)CC[C@@H]32)C[C@@H]1O [Example 123] is 100 mg or above.
satisfied

State whether the measured Dissolved aminoester reaches 100 mg, counting equality as reaching it, for CCC(C)CNCC(=O)O[C@H]1C[C@]2(C)[C@@H](C(C)=O)CC[C@H]2[C@@H]2CC[C@H]3C[C@H](O)CC[C@]3(C)[C@H]21 (stereo partly drawn) [Example 129]
not satisfied
